Method description: In vivo pharmacokinetic assay in rats (intravenous injection and oral administration)
Condition details: male, rat, plasma; SD rats, oral administration, 5 mg/kg
Method: III. In Vivo Pharmacokinetic Assay in Mice and Rats […] 2) The treated supernatant was diluted with water, and the concentration of the test compound was analyzed by LC/MS/MS. […] Pharmacokinetic parameters were calculated using WinNonlin 8.0, and the pharmacokinetic parameters for intravenous injection and oral administration in mice or rats are shown in Table 2 and Table 3 below: […]
Readout: Cmax (ng/mL)

(I) C[C@@H](Cc1c[nH]c(=O)c(C(F)(F)F)c1)OC(=O)N1CCN(c2ncc(C(F)(F)F)cn2)CC1 (single isomer, unassigned)
(II) C[C@@H]1CN(c2ncc(C(F)(F)F)cn2)CCN1C(=O)OCCc1c[nH]c(=O)c(C(F)(F)F)c1
(III) C[C@@H](Cc1c[nH]c(=O)c(C(F)(F)F)c1)OC(=O)N1CCN(c2ncc(C(F)(F)F)cn2)[C@@H](C)C1
Ranking request: Cmax, max to min, items above. Would you mind listing the labels in the order asked for? II, III, I

###

Measurement target: PARP7 (Homo sapiens (Human), UniProt Q7Z3E1)
Sequence (Q7Z3E1 whole entry): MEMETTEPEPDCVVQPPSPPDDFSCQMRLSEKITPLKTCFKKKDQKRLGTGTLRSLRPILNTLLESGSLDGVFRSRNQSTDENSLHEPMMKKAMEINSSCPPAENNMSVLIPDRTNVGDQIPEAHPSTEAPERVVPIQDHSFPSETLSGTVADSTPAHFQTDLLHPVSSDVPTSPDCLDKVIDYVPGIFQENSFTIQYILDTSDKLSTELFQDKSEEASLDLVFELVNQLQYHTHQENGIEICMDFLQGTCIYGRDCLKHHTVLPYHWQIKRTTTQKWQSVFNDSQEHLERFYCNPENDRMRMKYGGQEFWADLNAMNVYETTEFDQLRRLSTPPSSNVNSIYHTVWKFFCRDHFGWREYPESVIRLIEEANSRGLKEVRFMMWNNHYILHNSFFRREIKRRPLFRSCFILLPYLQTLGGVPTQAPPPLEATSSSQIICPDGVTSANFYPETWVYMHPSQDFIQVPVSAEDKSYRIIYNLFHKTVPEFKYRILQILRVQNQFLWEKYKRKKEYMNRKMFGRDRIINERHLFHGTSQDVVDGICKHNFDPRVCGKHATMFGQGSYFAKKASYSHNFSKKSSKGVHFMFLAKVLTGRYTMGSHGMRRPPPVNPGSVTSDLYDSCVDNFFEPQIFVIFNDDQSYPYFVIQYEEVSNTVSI
pIC50: −log10 of the molar value.
Readout: pIC50

// solved cases for pIC50 follow
- Molecule: "O=C(OC[C@H]1CCCN1c1c[nH]c(=O)c(C(F)(F)F)c1)N1CCN(c2ncc(C(F)(F)F)cn2)CC1"
  Measurement: 9.42
- Molecule: "COC[C@@H]1CN(c2ncc(C(F)(F)F)cn2)CCN1C(=O)OCCc1c[nH]c(=O)c(C(F)(F)F)c1 (stereo in doubt)"
  Measurement: 9.41
- Molecule: "C[C@@H](Cc1c[nH]c(=O)c(C(F)(F)F)c1)OC(=O)N1CCC(Nc2ncc(C(F)(F)F)cn2)CC1"
  Measurement: 8.30
- Molecule: "C[C@@H]1CN(c2ncc(C(F)(F)F)cn2)[C@H](C)CN1C(=O)O[C@@H](C)Cc1c[nH]c(=O)c(C(F)(F)F)c1"
  Measurement: 9.04
- Molecule: "O=C(OCCc1c[nH]c(=O)c(C(F)(F)F)c1)N1CC2CCC(C1)N2c1ncc(C(F)(F)F)cn1"
  Measurement: 9.15

(P) Cc1cnc(N2C[C@@H](C)N(C(=O)OCCc3c[nH]c(=O)c(C(F)(F)F)c3)[C@@H](C)C2)nc1
(Q) O=C(CCO[C@H]1CCC[C@@H]1c1c[nH]c(=O)c(C(F)(F)F)c1)N1CCN(c2ncc(C(F)(F)F)cn2)CC1
Compare P and Q by numeric pIC50 and name the larger one. Reply briefly: the label of your chosen item. P

###

Here's what we have: IC50 numbers for PARP7 (Homo sapiens (Human)).
Readout: IC50 (nM)

- Compound: "C[C@@H](Cc1c[nH]c(=O)c(C(F)(F)F)c1)OC(=O)N1CC=C(c2ccc(C(F)(F)F)cn2)CC1"
  IC50 [nM]: 0.83
- Compound: "C[C@@H](Cc1c[nH]c(=O)c(C(F)(F)F)c1)OC(=O)N1CC(Nc2ncc(C(F)(F)F)cn2)C1"
  IC50 [nM]: 6.23
- Compound: "C[C@@H](Cc1c[nH]c(=O)c(C(F)(F)F)c1)OC(=O)N1CCN(c2ncc(C(F)(F)F)cn2)C[C@H]1CO"
  IC50 [nM]: 0.68
- Compound: "O=C(OCCc1c[nH]c(=O)c(C(F)(F)F)c1)N1CCN(c2ncc(C3CC3)cn2)CC1"
  IC50 [nM]: 0.76

(A) C[C@@H](Cc1c[nH]c(=O)c(C(F)(F)F)c1)OC(=O)N1CCN(c2ncc(C(C)(C)O)cn2)CC1
(B) C[C@@H]1CN(c2ncc(C(F)(F)F)cn2)C[C@@H](C)N1C(=O)O[C@@H](C)Cc1c[nH]c(=O)c(C(F)(F)F)c1
(C) C[C@@H](Cc1c[nH]c(=O)c(C(F)(F)F)c1)OC(=O)N1CC[C@@H](Nc2ncc(C(F)(F)F)cn2)C1
Could you please order the items by IC50, going from the lowest number to the highest? Would you mind listing the labels in the order asked for? A, C, B
